Reference source for all entries: patent US20120039802A1

SYSTEM_UNDER_TEST: T1, cMet-Fc fusion protein (extracellular domain of the cMet receptor expressed as an Fc-fusion protein) (human, UniProt P08581 25-932)
T1 construct: extracellular domain; also called soluble cMet-Fc-fusion protein; soluble cMet receptor; not shown: Fc part
METHOD: phage ELISA on cMet-Fc, competitor HGF 100 ng/mL
Protocol: These assays were conducted using the peptide-displaying phage discovered from the initial selection and screening campaigns using the first generation peptide libraries. Briefly, 96-well plates were coated overnight at 4 C with 0.5 μg/mL of cMet-Fc fusion protein or TRAIL-Fc fusion protein (background). […] The plates were incubated for 2 hours at room temperature, washed with PBST and cMet-binding peptide-displaying phage was detected using an HRP-conjugated anti-M13 antibody.
Exercise: for every item that follows, state its recorded % of binding in the absence of HGF.
Response body: numeric value in %, unit text excluded.

Sure, the documented % of binding in the absence of HGF for AGTLSCSEEYKSCQLQGT [465-E09 peptide-displaying phage (SEQ ID NO: 027)] is 60

What the record says about GSSHLCNPEFCHFTAP [465-D09 peptide-displaying phage (SEQ ID NO: 003)] : % of binding in the absence of HGF is 90

The recorded % of binding in the absence of HGF for entry GSFTACNKTSTTRQPCNPYAP [451-B12 peptide-displaying phage (SEQ ID NO: 384)] equals 61

For GDASWCDENSPAAWFYCELWDP [551-D02 peptide-displaying phage (SEQ ID NO: 394)] the binder record lists % of binding in the absence of HGF as 91
